- assay.name: gradient 5% acetonitrile 3 min, to 50% in 2 min, to 85% in 15 min, held 3 min, 100 µL/min
- test.conditions: column: Zorbax Extend-C18 2.1 x 50 mm; eluents: water / acetonitrile, 0.1% formic acid
value.kind: RP-LC retention time (s)

- Cc1ccc(N2CC(c3nc(-c4ccc5c(c4)OCO5)no3)CC2=O)cc1Cl (stereo not given): 1050
- O=C(C1CCCN(c2nccnc2Sc2ccccc2)C1)N1CCCCCC1 (stereo not given): 1120
- O=C(NCC1CCCO1)c1n[nH]c2c1CCCCCC2 (stereo not given): 724
- Cc1ccc(Cn2c(CN3CCC(C(=O)N4CCCC4)CC3)cc3ccccc32)cc1: 750
- CCn1nccc1C(=O)N1CCCC1c1cccc(F)c1 (stereo not given): 812
